Hey, just so you know, these numbers are from PubChem BioAssay AID1963835.

Reported viability, T/C by item:
# Tested on: 699152-130-R-J1-PDC complex spheroid viability;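 further: spheroids exposed to agents for 7 days before viability reading; percent of DMSO vehicle control viability so 100% = vehicle and 0% = no viable signal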
# assay.procedure: Anticancer human tumor 699152-130-R-J1-PDC patient-derived pancreatic carcinoma cell line growth inhibition [POLQ]
# condition.summary: second compound 10 µM; first compound 10 µM; hits give low values
# Procedure: Multicellular complex tumor spheroid response to Polymerase (POL) inhibitors (novobiocin, ART-558, RP6685) in combination with a variety of drugs and investigational agents in selected tumor cell lines The POL inhibitors (novobiocin, ART-558, and RP6685) were evaluated both individually and in combination with standard of care and investigational anticancer small molecules within a complex spheroid model of solid tumors. . […]
Enter your answer as a number in %; do not include the unit.

Known results for compounds:
{"compound": "COc1ccc([C@@H](O)c2cc(-c3ncnc4cc(N5CCOCC5)ccc34)c(F)cc2Cl)nn1 + COC1C(OC(N)=O)C(O)C(Oc2ccc3c(O)c(NC(=O)c4ccc(O)c(CC=C(C)C)c4)c(=O)oc3c2C)OC1(C)C", "viability, T/C (%)": 27.7}
{"compound": "Nc1ccn(C2OC(CO)C(O)C2(F)F)c(=O)n1 (stereo not given) + COC1C(OC(N)=O)C(O)C(Oc2ccc3c(O)c(NC(=O)c4ccc(O)c(CC=C(C)C)c4)c(=O)oc3c2C)OC1(C)C", "viability, T/C (%)": 38}
{"compound": "C#Cc1c(F)ccc2cc(O)cc(-c3ncc4c(N5CC6CCC(C5)N6)nc(OCC56CCCN5CC(F)C6)nc4c3F)c12 (stereo not given) + COC1C(OC(N)=O)C(O)C(Oc2ccc3c(O)c(NC(=O)c4ccc(O)c(CC=C(C)C)c4)c(=O)oc3c2C)OC1(C)C", "viability, T/C (%)": 12.7}
{"compound": "CC1COCCN1c1cc(C2(S(C)(=N)=O)CC2)nc(-c2ccnc3[nH]ccc23)n1 (stereo not given) + Nc1ccc(C#CCN(C(=O)Cc2ncc(C(F)(F)F)cc2C(F)(F)F)c2ccc(F)cc2)nn1", "viability, T/C (%)": 77.2}

Req: Bench note: what viability, T/C did C=CC(=O)N1CCN(c2nc(=O)n(-c3c(C)ccnc3C(C)C)c3nc(-c4c(O)cccc4F)c(F)cc23)C(C)C1 (stereo not given) + Nc1ccc(C#CCN(C(=O)Cc2ncc(C(F)(F)F)cc2C(F)(F)F)c2ccc(F)cc2)nn1 show?
Resp: 121

Req: Quick one: CC(C)n1c(=O)n(C)c2cnc3cc(F)c(-c4ccc(OCCCN5CCCCC5)nc4)cc3c21 + Nc1ccc(C#CCN(C(=O)Cc2ncc(C(F)(F)F)cc2C(F)(F)F)c2ccc(F)cc2)nn1
Resp: 91.9

Req: Also need CCCS(=O)(=O)Nc1ccc(F)c(C(=O)c2c[nH]c3ncc(-c4ccc(Cl)cc4)cc23)c1F + COC1C(OC(N)=O)C(O)C(Oc2ccc3c(O)c(NC(=O)c4ccc(O)c(CC=C(C)C)c4)c(=O)oc3c2C)OC1(C)C , thanks.
Resp: 66.4

Req: Lookup O=C(c1cc(Cc2n[nH]c(=O)c3ccccc23)ccc1F)N1CCN(C(=O)C2CC2)CC1 + Nc1ccc(C#CCN(C(=O)Cc2ncc(C(F)(F)F)cc2C(F)(F)F)c2ccc(F)cc2)nn1
Resp: 97.8

Req: Next entry: CC(C)n1c(=O)n(C)c2cnc3cc(F)c(-c4ccc(OCCCN5CCCCC5)nc4)cc3c21 + Cc1cccc(N(C)C(=O)C2C(O)CCN2c2nc(C)cc(C(F)(F)F)c2C#N)c1
Resp: 84.7
